TESTED_SYSTEM: Human AMPK α2β2γ1 (Homo sapiens, UniProt O43741+P54646)
Construct: The full length cDNAs of human AMPK β2 (NM_005399.3) and human AMPK α2 (NM_006252.3); The full length cDNAs of human AMPK β2 (NM_005399.3); the full length cDNA of human AMPK γ1 (NM_002733.3) had been inserted into pET28b(+); 6×His (N); made in house; host or cells: Escherichia coli BL21 CodonPlus (DE3)-RIL
Sequence (P54646 whole entry): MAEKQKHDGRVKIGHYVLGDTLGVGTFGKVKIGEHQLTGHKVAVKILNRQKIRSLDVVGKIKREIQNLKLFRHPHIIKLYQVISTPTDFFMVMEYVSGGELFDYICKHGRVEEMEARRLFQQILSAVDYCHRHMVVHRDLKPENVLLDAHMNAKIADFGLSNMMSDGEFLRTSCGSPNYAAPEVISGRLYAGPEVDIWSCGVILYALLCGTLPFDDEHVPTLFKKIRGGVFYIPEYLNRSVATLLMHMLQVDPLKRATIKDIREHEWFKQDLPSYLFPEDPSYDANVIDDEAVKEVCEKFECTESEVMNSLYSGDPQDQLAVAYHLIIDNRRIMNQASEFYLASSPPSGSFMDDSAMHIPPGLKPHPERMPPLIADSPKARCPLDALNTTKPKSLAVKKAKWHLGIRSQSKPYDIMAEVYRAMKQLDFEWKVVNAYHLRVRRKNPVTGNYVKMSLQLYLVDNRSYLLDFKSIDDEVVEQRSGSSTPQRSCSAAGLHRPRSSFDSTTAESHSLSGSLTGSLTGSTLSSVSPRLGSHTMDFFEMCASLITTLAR
Sequence (O43741 whole entry): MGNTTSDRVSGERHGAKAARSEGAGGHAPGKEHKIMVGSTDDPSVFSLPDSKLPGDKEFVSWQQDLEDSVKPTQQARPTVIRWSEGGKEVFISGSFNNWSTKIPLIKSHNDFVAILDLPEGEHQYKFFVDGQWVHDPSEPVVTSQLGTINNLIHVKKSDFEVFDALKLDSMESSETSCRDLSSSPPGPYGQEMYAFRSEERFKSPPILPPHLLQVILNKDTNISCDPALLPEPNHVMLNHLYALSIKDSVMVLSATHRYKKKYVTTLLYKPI
Sequence (P54619 whole entry partner): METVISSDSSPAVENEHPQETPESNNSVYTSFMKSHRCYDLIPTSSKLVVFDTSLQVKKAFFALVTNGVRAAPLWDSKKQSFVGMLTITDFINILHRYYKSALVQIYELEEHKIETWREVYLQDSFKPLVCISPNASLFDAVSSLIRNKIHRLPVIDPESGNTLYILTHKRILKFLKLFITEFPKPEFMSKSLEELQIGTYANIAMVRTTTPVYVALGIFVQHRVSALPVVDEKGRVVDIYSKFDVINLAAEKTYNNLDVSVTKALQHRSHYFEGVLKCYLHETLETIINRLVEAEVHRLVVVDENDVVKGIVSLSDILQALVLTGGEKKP
EXPERIMENTAL_DETAILS: Test Example 2: activation of phosphorylated human AMPK α2β2γ1 (mobility-shift kinase assay, FL-Peptide 7)
Format: biochemical
MEASUREMENT_SETUP: maximum rate of increase in activity within the measurement range, control = 100%; read-out: Emax
PROPERTY_MEASURED: Emax (%)

{"columns": ["MOL_SMILES", "PROPERTY_MEASURED", "NUMERIC_READOUT"],
 "data": [
  ["COCCCc1ccc(-c2ccc(-c3nc4cc(O[C@@H]5CO[C@H]6[C@@H]5OC[C@H]6O)[nH]c4cc3F)cc2)cc1", "Emax", 367],
  ["COCCNC(=O)c1ccc(-c2ccc(-c3nc4cc(O[C@@H]5CO[C@H](CO)C5)[nH]c4cc3F)cc2)cc1", "Emax", 591],
  ["COCCOc1ccc(-c2ccc(-c3nc4cc(O[C@@H]5CO[C@H](CO)C5)[nH]c4cc3F)cc2)cc1", "Emax", 537]
]}

* * *

TESTED_SYSTEM: Human AMPK α2β2γ1 (Homo sapiens, UniProt O43741+P54646)
Construct: The full length cDNAs of human AMPK β2 (NM_005399.3) and human AMPK α2 (NM_006252.3); The full length cDNAs of human AMPK β2 (NM_005399.3); the full length cDNA of human AMPK γ1 (NM_002733.3) had been inserted into pET28b(+); 6×His (N); made in house; host or cells: Escherichia coli BL21 CodonPlus (DE3)-RIL
EXPERIMENTAL_DETAILS: Test Example 2: activation of phosphorylated human AMPK α2β2γ1 (mobility-shift kinase assay, FL-Peptide 7)
Assay type: biochemical
MEASUREMENT_SETUP: compound concentration showing 150% relative to the control (100%); human AMPK α2β2γ1 phosphorylated with CaMKK2
The following molecules are listed with their measured EC150 values.
PROPERTY_MEASURED: EC150 (nM)

{"columns": ["MOLECULE", "PROPERTY_MEASURED", "UNITS_OF_MEASURE", "NUMERIC_READOUT"],
 "data": [
  ["CCC(=O)NC1CC(c2ccc(-c3nc4cc(O[C@@H]5CO[C@H]6[C@@H]5OC[C@H]6O)[nH]c4cc3F)cc2)C1 (stereo partly drawn)", "EC150", "nM", 29],
  ["COCCNc1ccc(-c2ccc(-c3nc4cc(O[C@@H]5CO[C@H]6[C@@H]5OC[C@H]6O)[nH]c4cc3F)cc2)cc1", "EC150", "nM", 6.8],
  ["CS(=O)(=O)c1ccc(-c2ccc(-c3nc4cc(O[C@@H]5CO[C@H](CO)C5)[nH]c4cc3F)cc2)cc1", "EC150", "nM", 0.69]
]}

* * *

The following molecules are listed with their measured EC150 values.
TESTED_SYSTEM: Human AMPK α2β2γ1 (Homo sapiens, UniProt O43741+P54646)
Construct: The full length cDNAs of human AMPK β2 (NM_005399.3) and human AMPK α2 (NM_006252.3); The full length cDNAs of human AMPK β2 (NM_005399.3); the full length cDNA of human AMPK γ1 (NM_002733.3) had been inserted into pET28b(+); 6×His (N); made in house; host or cells: Escherichia coli BL21 CodonPlus (DE3)-RIL
EXPERIMENTAL_DETAILS: Test Example 2: activation of phosphorylated human AMPK α2β2γ1 (mobility-shift kinase assay, FL-Peptide 7)
Format: biochemical
MEASUREMENT_SETUP: compound concentration showing 150% relative to the control (100%); human AMPK α2β2γ1 phosphorylated with CaMKK2
From the text: The full length cDNAs of human AMPK β2 (NM_005399.3) and human AMPK α2 (NM_006252.3) were inserted into the MCS1 and MCS2 of the pETDuet-1 vector to prepare a human AMPK β2 and human AMPK α2 (6×His tag at the 5′ terminus) expressing plasmid. […] To detect phosphorylated fluorescent substrates, the reaction mixture was applied to a measuring device, LabChip EZ Reader II manufactured by Caliper Life Science, Inc., for detecting fluorescence by using differences in mobility due to differences in charge. […]

{"columns": ["MOLECULE", "UNITS_OF_MEASURE", "EC150"],
 "data": [
  ["CS(C)(=O)=NC1CC=C(c2ccc(-c3nc4cc(O[C@@H]5CO[C@H](CO)C5)[nH]c4cc3F)cc2)CC1 (stereo partly drawn)", "nM", 4.2],
  ["C[S+]([O-])c1ccc(-c2ccc(-c3nc4cc(O[C@@H]5CO[C@H](CO)C5)[nH]c4cc3F)cc2)cc1 (single isomer, unassigned) [Compound I-2-06]", "nM", 0.46],
  ["CS(C)(=O)=Nc1ccc(-c2ccc(-c3nc4cc(O[C@@H]5CO[C@H](CO)[C@H]5O)[nH]c4cc3F)cc2)cc1", "nM", 28],
  ["O[C@@H]1CO[C@H]2[C@@H]1OC[C@H]2Oc1cc2nc(-c3ccc(-c4ccc(OC5CNC[C@H]5F)cc4)cc3)c(F)cc2[nH]1 (stereo partly drawn)", "nM", 4.4],
  ["CN1CCN(c2ccc(-c3ccc(-c4nc5cc(O[C@@H]6CO[C@H]7[C@@H]6OC[C@H]7O)[nH]c5cc4F)cc3)cc2)C1=O", "nM", 4.2],
  ["COCCN(C)C(=O)c1ccc(-c2ccc(-c3nc4cc(O[C@@H]5CO[C@H](CO)C5)[nH]c4cc3F)cc2)cc1", "nM", 0.73],
  ["CNS(C)(=O)=Nc1ccc(-c2ccc(-c3nc4cc(O[C@@H]5CO[C@H](CO)C5)[nH]c4cc3F)cc2)cc1 (stereo partly drawn)", "nM", 2.8],
  ["O[C@@H]1CO[C@H]2[C@@H]1OC[C@H]2Oc1cc2nc(-c3ccc(-c4ccc(OC5CCOC5)cc4)cc3)c(F)cc2[nH]1 (stereo partly drawn)", "nM", 13],
  ["CN(C)S(=O)(=O)c1ccc(-c2ccc(-c3nc4cc(O[C@@H]5CO[C@H]6[C@@H]5OC[C@H]6O)[nH]c4cc3F)cc2)nc1", "nM", 6.5],
  ["COCC(=O)Nc1ccc(-c2ccc(-c3nc4cc(O[C@@H]5CO[C@H]6[C@@H]5OC[C@H]6O)[nH]c4cc3F)cc2)cc1", "nM", 2.9],
  ["CO[C@@H]1[C@@H](CO)OC[C@H]1Oc1cc2nc(-c3ccc(-c4ccc(N=S(C)(C)=O)cc4)cc3)c(F)cc2[nH]1", "nM", 9.2],
  ["O[C@@H]1CO[C@H]2[C@@H]1OC[C@H]2Oc1cc2nc(-c3ccc(N4CCC(OC5CCNCC5)CC4)cc3)c(F)cc2[nH]1", "nM", 47]
]}

* * *

TESTED_SYSTEM: Human AMPK α2β2γ1 (Homo sapiens, UniProt O43741+P54646)
Construct: The full length cDNAs of human AMPK β2 (NM_005399.3) and human AMPK α2 (NM_006252.3); The full length cDNAs of human AMPK β2 (NM_005399.3); the full length cDNA of human AMPK γ1 (NM_002733.3) had been inserted into pET28b(+); 6×His (N); made in house; host or cells: Escherichia coli BL21 CodonPlus (DE3)-RIL
EXPERIMENTAL_DETAILS: Test Example 2: activation of phosphorylated human AMPK α2β2γ1 (mobility-shift kinase assay, FL-Peptide 7)
Assay type: biochemical
MEASUREMENT_SETUP: maximum rate of increase in activity within the measurement range, control = 100%; read-out: Emax

{"columns": ["COMPOUND", "UNITS_OF_MEASURE", "Emax"],
 "data": [
  ["COC(=O)NC1CC=C(c2ccc(-c3nc4cc(O[C@@H]5CO[C@H](CO)C5)[nH]c4cc3F)cc2)CC1 (some centres unmarked)", "%", 376],
  ["CNS(C)(=O)=Nc1ccc(-c2ccc(-c3nc4cc(O[C@@H]5CO[C@H]6[C@@H]5OC[C@H]6O)[nH]c4cc3F)cc2)cc1 (some centres unmarked)", "%", 638],
  ["O[C@@H]1CO[C@H]2[C@@H]1OC[C@H]2Oc1cc2nc(-c3ccc(-c4ccc(CN5CCOCC5)cc4)cc3)c(F)cc2[nH]1", "%", 348],
  ["C[S+]([O-])c1ccc(-c2ccc(-c3nc4cc(O[C@@H]5CO[C@H]6[C@@H]5OC[C@H]6O)[nH]c4cc3F)cc2)cc1 (single isomer, unassigned) [Compound I-2-08]", "%", 598],
  ["COCCOc1ccc(-c2ccc(-c3nc4cc(O[C@@H]5CO[C@H]6[C@@H]5OC[C@H]6O)[nH]c4cc3F)cc2)cc1F", "%", 458],
  ["CO[C@@H]1[C@@H](CO)OC[C@H]1Oc1cc2nc(-c3ccc(-c4ccc(N=S(C)(C)=O)cc4)cc3)c(F)cc2[nH]1", "%", 597],
  ["O[C@@H]1CO[C@H]2[C@@H]1OC[C@H]2Oc1cc2nc(-c3ccc(-c4ccc(N5CCOCC5)cc4)cc3)c(F)cc2[nH]1", "%", 375],
  ["CNC(=O)c1ccc(-c2ccc(-c3nc4cc(O[C@@H]5CO[C@H]6[C@@H]5OC[C@H]6O)[nH]c4cc3F)cc2)cc1", "%", 431],
  ["COCCOc1cc(F)c(-c2ccc(-c3nc4cc(O[C@@H]5CO[C@H]6[C@@H]5OC[C@H]6O)[nH]c4cc3F)cc2)c(F)c1", "%", 490],
  ["CN(C)S(=O)(=O)c1ccc(-c2ccc(-c3nc4cc(O[C@@H]5CO[C@H]6[C@@H]5OC[C@H]6O)[nH]c4cc3F)cc2)nc1", "%", 464],
  ["O=C(c1ccc(-c2ccc(-c3nc4cc(O[C@@H]5CO[C@H](CO)C5)[nH]c4cc3F)cc2)cc1)N1CCCC1", "%", 684],
  ["O[C@@H]1CO[C@H]2[C@@H]1OC[C@H]2Oc1cc2nc(-c3ccc([C@@H]4CCCC[C@H]4O)cc3)c(F)cc2[nH]1", "%", 600],
  ["COC(=O)N1CC=C(c2ccc(-c3nc4cc(O[C@@H]5CO[C@H]6[C@@H]5OC[C@H]6O)[nH]c4cc3F)cc2)CC1", "%", 514],
  ["C[S@@](=O)(=Nc1ccc(-c2ccc(-c3nc4cc(O[C@@H]5CO[C@H]6[C@@H]5OC[C@H]6O)[nH]c4cc3F)cc2)cc1)c1ccccc1", "%", 477],
  ["CS(=O)(=O)c1ccc(-c2ccc(-c3nc4cc(O[C@@H]5CO[C@H](CO)C5)[nH]c4cc3F)cc2)nc1", "%", 652],
  ["CNC(=O)COc1ccc(-c2ccc(-c3nc4cc(O[C@@H]5CO[C@H]6[C@@H]5OC[C@H]6O)[nH]c4cc3F)cc2)cc1", "%", 635],
  ["O=C(c1ccc(-c2ccc(-c3nc4cc(O[C@@H]5CO[C@H]6[C@@H]5OC[C@H]6O)[nH]c4cc3F)cc2)cc1)N1CCCC1", "%", 475],
  ["COCCOCCOc1ccc(-c2ccc(-c3nc4cc(O[C@@H]5CO[C@H]6[C@@H]5OC[C@H]6O)[nH]c4cc3F)cc2)cc1", "%", 635],
  ["CO[C@H]1[C@@H](CO)OC[C@H]1Oc1cc2nc(-c3ccc(-c4ccc(N=S(C)(C)=O)cc4)cc3)c(F)cc2[nH]1", "%", 298],
  ["OCC1(c2ccc(-c3nc4cc(O[C@@H]5CO[C@H]6[C@@H]5OC[C@H]6O)[nH]c4cc3F)cc2)CC1", "%", 580],
  ["COCCN(C(C)=O)c1ccc(-c2ccc(-c3nc4cc(O[C@@H]5CO[C@H]6[C@@H]5OC[C@H]6O)[nH]c4cc3F)cc2)cc1", "%", 415],
  ["COCCOc1ccc(-c2ccc(-c3nc4cc(O[C@@H]5CO[C@H]6[C@@H]5OC[C@H]6O)[nH]c4cc3F)cc2)cc1", "%", 333],
  ["CS(C)(=O)=NC1CC=C(c2ccc(-c3nc4cc(O[C@@H]5CO[C@H](CO)C5)[nH]c4cc3F)cc2)CC1 (some centres unmarked)", "%", 681]
]}
